# System: ENR+CD organoids (ISC to Paneth cell differentiation)
# protocol text: Primary screen: CCh-stimulated lysozyme secretion LYZ.S, 2.5-D 384-well ENR+CD organoid differentiation
# Assay type: cell-based, mouse
# condition summary: primary screen; dose 0.40 uM; FC vs plate median
parameter measured: Dose.FC.LYZ.S (log2 fold change)
The reply should contain only the number, in log2 fold change.

>>> print(df.to_string())
                                   compound  parameter_measured   unit_descriptor  observed
0  CC(C)C[C@H](NC(=O)CNC(=O)c1cc(Cl)ccc1Cl)B(O)O [MLN2238]       Dose.FC.LYZ.S  log2 fold change    −0.358

[in] # get_value(readout='Dose.FC.LYZ.S', item= O=C(Nc1cccnc1)N1CCC(Cc2cccc(Oc3ccc(C(F)(F)F)cn3)c2)CC1 [PF-3845] )
[out] −0.061

[in] Proceed to O=C(O)c1ccc(Nc2ncc3c(n2)-c2ccc(Cl)cc2C(c2c(F)cccc2F)=NC3)cc1 [MLN8054]
[out] 0.167

----------
# System: ENR+CD organoids
# protocol text: Primary screen: ATP (CellTiter-Glo 3D, CTG) cell number/viability, 2.5-D 384-well ENR+CD organoids
# condition summary: primary screen, dose 2.00 uM, standard z score
# note: exactly 0.08 is not below, so it is false (0); use true (1) for Z.CTG strictly under it

Consider the worked cases shown below.
In [3]: df
Out[3]:
                                   molecule      class
0  CNC(=O)c1ccccc1Nc1nc(Nc2ccc(N3CCOCC3)cc2OC)ncc1Cl [TAE226 (NVP-TAE226)]   true (1)
1            O=[N+]([O-])C=Cc1ccc2c(c1)OCO2  false (0)
2  CN(c1ncccc1CNc1nc(Nc2ccc3c(c2)CC(=O)N3)ncc1C(F)(F)F)S(C)(=O)=O [PF-562271]   true (1)

In the following, a different molecule is considered.
[in] API: query returns whether the molecule falls strictly under 0.08 in Z.CTG. Query: CCN(CC)CCCC(C)Nc1nc(C)cc(Nc2ccc3nc(C)cc(N)c3c2)n1 (centres unmarked) [NSC 23766]
[out] false (0)

----------
# System: ENR+CD organoids
# protocol text: Primary screen: ATP (CellTiter-Glo 3D, CTG) cell number/viability, 2.5-D 384-well ENR+CD organoids
# condition summary: primary screen, dose 2.00 uM
parameter measured: Z.CTG (standard z score)
Give your answer as a number; write no unit.

Example compounds with recorded Z.CTG (standard z score):
>>> print(df.to_string())
                                   compound        parameter_measured  observed
0  Fc1cc(F)c2c(c1)[C@H]1C=CC[C@H]1C(c1cccnc1)N2 (mixture of isomers) [Golgicide A]  Z.CTG (standard z score)     0.810
1  O=C(Nc1cccc(C(F)(F)F)c1)Nc1cc(S(=O)(=O)NC2CC2)ccc1-c1ccsc1  Z.CTG (standard z score)     0.713
2  CCO.N#CC(=C(/N)Sc1ccccc1N)/C(C#N)=C(\N)Sc1ccccc1N  Z.CTG (standard z score)    −1.138

[in] # get_value(readout='Z.CTG (standard z score)', item= CC(C)N(CC[C@H](c1ccccc1)c1cc(CO)ccc1O)C(C)C )
[out] −0.387

----------
# Test system: ENR+CD organoids
# protocol text: Primary screen: ATP (CellTiter-Glo 3D, CTG) cell number/viability, 2.5-D 384-well ENR+CD organoids
# condition summary: primary screen, dose 0.08 uM
Structures can show the parent of a compound that is named as a salt.
# note: exactly 0.1 log2 fold change is not below, so it is false (0); use true (1) for Dose.FC.CTG strictly under it

compound	study system	class
COc1ccc(C[C@@H](C)NC[C@H](O)c2ccc(O)c(NC=O)c2)cc1.COc1ccc(C[C@@H](C)NC[C@H](O)c2ccc(O)c(NC=O)c2)cc1.O=C(O)/C=C/C(=O)O [Formoterol Hemifumarate]	ENR+CD organoids	false (0)
CC[C@H](NC(=O)[C@H](C)NC)C(=O)N1C[C@@H](O)C[C@H]1Cc1c(-c2[nH]c3cc(F)ccc3c2C[C@@H]2C[C@H](O)CN2C(=O)[C@H](CC)NC(=O)[C@H](C)NC)[nH]c2cc(F)ccc12	ENR+CD organoids	true (1)
C=C1C(=O)O[C@H]2[C@H]1CC/C(C)=C/CC[C@@]1(C)O[C@@H]21 [(−)-Parthenolide]	ENR+CD organoids	false (0)
CC(C)N(CC[C@H](c1ccccc1)c1cc(CO)ccc1O)C(C)C	ENR+CD organoids	true (1)
C[C@H](Oc1cc(-c2cnn(C3CCNCC3)c2)cnc1N)c1c(Cl)ccc(F)c1Cl [(S)-crizotinib]	ENR+CD organoids	false (0)

[in] API: query returns whether the compound falls strictly under 0.1 log2 fold change in Dose.FC.CTG. Query: Cc1cc(C)nc(NS(=O)(=O)c2ccc(NC(=S)NC(=O)COc3ccc(Br)cc3Cl)cc2)n1
[out] true (1)

[in] Proceed to CC(C)C[C@H](NC(=O)[C@H](Cc1ccccc1)NC(=O)c1cnccn1)B(O)O
[out] true (1)

[in] Proceed to Cc1ccccc1C(=O)Nc1ccc(C(=O)N2CCCC(O)c3cc(Cl)ccc32)c(C)c1 (stereo not shown)
[out] true (1)

[in] Proceed to CN1CCC[C@@H]1CCO[C@](C)(c1ccccc1)c1ccc(Cl)cc1 [Clemastine Fumarate]
[out] false (0)

----------
# Tested on: ENR+CD organoids (ISC to Paneth cell differentiation)
# protocol text: Primary screen: basal (non-stimulated) lysozyme secretion LYZ.NS, 2.5-D 384-well ENR+CD organoid differentiation
# Format: cell-based, mouse
# condition summary: primary screen, dose 0.08 uM, standard z score
parameter measured: Z.LYZ.NS
Give your answer as a number; write no unit.

Example molecules with recorded Z.LYZ.NS:
molecule	Z.LYZ.NS
O=C(/C=C/c1ccccc1)NC(NC(=S)Nc1ccc(Cl)cc1)C(Cl)(Cl)Cl (stereo not drawn)	1.013
CN(c1ncccc1CNc1nc(Nc2ccc3c(c2)CC(=O)N3)ncc1C(F)(F)F)S(C)(=O)=O	−0.589
CO[C@H]1C[C@@H]2CC[C@@H](C)[C@@](O)(O2)C(=O)C(=O)N2CCCC[C@H]2C(=O)O[C@H]([C@H](C)C[C@@H]2CC[C@@H](OC(=O)C(C)(CO)CO)[C@H](OC)C2)CC(=O)[C@H](C)/C=C(\C)[C@@H](O)[C@@H](OC)C(=O)[C@H](C)C[C@H](C)/C=C/C=C/C=C/1C	0.790

[in] # get_value(readout='Z.LYZ.NS', item= Cc1c(C(=O)NN2CCCCC2)nn(-c2ccc(Cl)cc2Cl)c1-c1ccc(Cl)cc1 )
[out] 0.936

[in] Proceed to Oc1cc(O)cc(/C=C/c2ccc(O)c(O)c2)c1
[out] 0.698

[in] Proceed to CN1CCN(c2nc(C3=C(c4c[nH]c5ccccc45)C(=O)NC3=O)c3ccccc3n2)CC1
[out] 1.678

----------
# Test system: ENR+CD organoids
# protocol text: Primary screen: ATP (CellTiter-Glo 3D, CTG) cell number/viability, 2.5-D 384-well ENR+CD organoids
# condition summary: primary screen, dose 2.00 uM
# note: exactly -0.3 is not below, so it is false; use true for Z.CTG (standard z score) strictly under it

In [3]: df
Out[3]:
                                   molecule  class
0  O=C(c1cncc(Br)c1)N1CCC(N2CCCC2)CC1 [UNC669]   true
1  CN(C)C(=O)Nc1cccc(-c2ccc(N(C)C)cc2)c1 [Atglistatin]  false
2  COc1cc2/c(=N/c3ccc(Br)cc3F)nc[nH]c2cc1OCC1CCN(C)CC1 [Vandetanib (ZD6474)]   true

In the following, a different molecule is considered.
[in] API: query returns whether the molecule falls strictly under -0.3 in Z.CTG (standard z score). Query: C[C@]1(c2nc3c(C(N)=O)cccc3[nH]2)CCCN1 [Veliparib (ABT-888)]
[out] false

----------
The molecules listed here are annotated with their Dose.FC.CTG (log2 fold change).
# Test system: ENR+CD organoids
# protocol text: Primary screen: ATP (CellTiter-Glo 3D, CTG) cell number/viability, 2.5-D 384-well ENR+CD organoids;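 note: compounds given at plating and again on day 3 over a 6-day differentiation from ENR+CV stem-cell-enriched precursors, ATP measured on day 6, plate median as control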
# condition summary: primary screen, dose 2.00 uM
Where a name gives a salt, the structure may show the parent alone.
Give your answer as a number; write no unit.

Example molecules with recorded Dose.FC.CTG (log2 fold change):
                                   molecule              parameter_measured  observed
0  CC1=C(C(=O)Nc2cc3cn[nH]c3cc2F)C(c2ccc(C(F)(F)F)cc2)CC(=O)N1 (stereo not drawn) [GSK429286A]  Dose.FC.CTG (log2 fold change)     0.488
1  Cc1ccc(C(=O)N(CCCN)[C@@H](c2nc3cc(Cl)ccc3c(=O)n2Cc2ccccc2)C(C)C)cc1 [Ispinesib (SB-715992)]  Dose.FC.CTG (log2 fold change)    −0.511

[in] # get_value(readout='Dose.FC.CTG (log2 fold change)', item= c1cc(-c2cnn3cc(-c4ccc(N5CCNCC5)cc4)cnc23)c2cccnc2c1 )
[out] −0.475

[in] Proceed to Cc1cc(Nc2cc(CN3CCOCC3)c3nc(C)c(Cc4ccc(Cl)cc4F)n3n2)n[nH]1
[out] 0.181

[in] Proceed to Cc1cccc(-c2nn3c(c2-c2ccnc4ccc(C(N)=O)cc24)CCC3)n1
[out] 0.017

[in] Proceed to CC(C)c1ccc(NC(=O)Cn2cnc3c2c(=O)n(C)c(=O)n3C)cc1
[out] −0.008

[in] Proceed to CN1C2CCCC1CC(NC(=O)c1nn(C)c3ccccc13)C2 (stereo not drawn) [Granisetron HCl]
[out] −0.178

[in] Proceed to CCCCc1nc(Cl)c(CO)n1Cc1ccc(-c2ccccc2-c2nnn[n-]2)cc1.[K+]
[out] −0.081

[in] Proceed to Cc1cccc(CC(=O)N2CCc3c2ccc(-c2cn(C)c4ncnc(N)c24)c3F)n1
[out] 0.083
